Values were extracted from PubChem BioAssay (NCI).

Please respond with reported GI50 for every item in the list.
test system: MALME-3M melanoma; assay: NCI tumour cell line growth inhibition, 48 h

Which GI50 is reported with MALME-3M melanoma for this entry: O=C(CC1(O)C(=O)N(Cc2ccccc2)c2ccc(Cl)cc21)c1ccc(C(=O)NCC2CCC3(CC2)OOC2(CCCCC2)OO3)cc1 (centres undefined) ?
209 nM

What about this molecule? C[C@@]1(C(=O)O)CCC[C@]2(C)C1CC[C@@]13C[C@@](O)(CC[C@]12O)[C@@]1(CO1)C3 (some centres undefined)
> 100000 nM

What about this molecule? O=C1/C=C/[C@@H](O)[C@@H]2C[C@@H](O)C[C@H]2/C=C/CCC[C@H](CCc2cccc3ccccc23)O1
36 nM

What about this molecule? Cc1ccc2oc(=O)cc(/C(=C3/C=CC=N3)c3ccc[nH]3)c2c1
782 nM

What about this molecule? CCCCN1CCCC[C@@H]1C(=O)N[C@H](C(=O)N(C)[C@H](C[C@@H](OC(C)=O)c1nc(C(=O)NC2CCC(C(=O)OC)CC2)cs1)C(C)C)C(C)C (some centres undefined)
1970 nM

What about this molecule? COc1ccc(/C=C2\CN(C(=O)C(Cl)Cl)C/C(=C\c3ccc(OC)cc3)C2=O)cc1
1920 nM

What about this molecule? COc1ccc(C#Cc2ccc(=O)oc2-c2cc(OC)c(OC)c(OC)c2)cc1O
10200 nM

What about this molecule? NC(=NCc1ccccc1)C(N=Nc1ccccc1)C(=O)NCc1ccccc1 (centres undefined)
21500 nM

What about this molecule? COc1cc(C2CC(c3cccc(Nc4ccnc5cc(Cl)ccc45)c3)=NN2c2ccc(Cl)cc2)cc(OC)c1OC (centres undefined)
21900 nM

====

test system: KM12 colon; experiment: NCI tumour cell line growth inhibition, 48 h
property_measured: TGI

Which TGI is reported with KM12 colon for this entry: O=C(Nc1ccc(Cc2ccccc2)cc1)Nc1nn(C(=O)Nc2ccc(Cc3ccccc3)cc2)c2ccccc12 ?
> 100 µM

What about this molecule? CCCCn1c(CSc2ccc(Cl)cc2)c(C(=O)OCC)c2cc(OC)c(Br)cc21
> 100 µM

What about this molecule? CCN1CCC(Nc2ccnc3cc(Cl)ccc23)CC1
> 100 µM

What about this molecule? CC(C)C12Cc3c(ccc4ccccc34)OC1(C)Oc1ccc3ccccc3c1C2 (centres undefined)
> 100 µM

What about this molecule? CCC(=O)N1C(=O)OCC1C(C)C (centres undefined)
> 100 µM

What about this molecule? C=C1C(=O)O[C@H]2[C@H]1CC/C(COC(=O)NCc1c[nH]c3ccccc13)=C\CC[C@@]1(C)O[C@@H]21
30.7 µM

What about this molecule? COc1ccc2c(c1)c(-c1nc(-c3c[nH]c4ncccc34)cs1)cn2CCCN1CCCCC1
3.86 µM

What about this molecule? COC(=O)C1CCN(C(=O)OC(C)(C)C)CC1
> 100 µM

What about this molecule? O=C(CC1(O)C(=O)N(Cc2ccccc2)c2ccc(Cl)cc21)c1ccc(C(=O)NCC2CCC3(CC2)OOC2(CCCCC2)OO3)cc1 (centres undefined)
0.782 µM

What about this molecule? COc1cc2c3cc1Oc1c(OC)c(OC)cc4c1C(=NCC4)Cc1ccc(cc1)Oc1cc(ccc1O)C[C@H]3N(C)CC2
29.8 µM

What about this molecule? NC(N)=NCC1CCCCCCN1 (centres undefined)
> 100 µM

What about this molecule? CCCCOC(=O)c1ccc(N)cc1
> 100 µM

What about this molecule? N.N.N.N.N.NC(=O)[O-].[Co+3].[I-]
> 100 µM

What about this molecule? Cc1[nH]c(=O)[nH]c(=O)c1/C=C/C(=O)O (tested in a mixture with another compound)
> 625 µM

What about this molecule? COC(=O)C1CCC(=S)N1C(=O)OCc1ccccc1 (centres undefined)
> 100 µM

What about this molecule? CSc1c(C2=C(c3cn(C)c4ccccc34)C(=O)NC2=O)c2ccccc2n1C
> 25 µM

What about this molecule? O=C(O)C[C@@H](Cl)[C@H](NC(=O)OCc1ccccc1)C(=O)O
> 100 µM

What about this molecule? Cc1cccc(-n2c(N)c(-c3nc4ccccc4[nH]3)sc2=S)c1
52.2 µM

What about this molecule? N#CC1(C#N)NC(c2ccccc2)C(C#N)(C#N)NC1c1ccccc1 (centres undefined)
> 100 µM

What about this molecule? O=C(O)[C@H](Cc1c[nH]c2ccccc12)N1C(=O)c2ccccc2C1=O
> 100 µM

What about this molecule? NCCSc1cc(O)c2c(c1N)C(=O)c1ccccc1C2=O
> 100 µM

What about this molecule? C=C1CC2(CC(c3ccccc3Cl)OC(c3ccccc3Cl)C2)OC1=O (centres undefined)
7.56 µM

What about this molecule? Oc1ccc(O)c(-c2cn3c(n2)SCC3)c1
38.2 µM

What about this molecule? COc1cc2c(c(OC)c1OC)-c1ccc(O)cc1[C@@H](NC(C)=O)CC2
0.224 µM

What about this molecule? COc1ccc(C=Nc2c(C(=O)Nc3cccc(Cl)c3C)sc3nc(C)c(C(=O)/C=C/c4ccc(OC)cc4)cc23)cc1
> 43.9 µM

What about this molecule? O=C1C(=C(C(F)(F)Cl)C(F)(F)Cl)C2CCC1C2 (centres undefined)
> 8.65 µM

What about this molecule? CCOC(=O)C(NC(=O)c1ccccc1)(Nc1ccc(S(=O)(=O)Nc2ncccn2)cc1)C(F)(F)F (centres undefined)
> 100 µM

What about this molecule? COc1cc(Oc2c(C)c(Cl)c(OC)c(Cl)c2OC)c2c(c1Cl)COC2=O
> 100 µM

What about this molecule? COc1nc2cccc(C(O)c3ccccc3)c2nc1-c1ccccc1 (centres undefined)
> 100 µM

What about this molecule? CC(=O)OCC1OC(n2ccc(=O)[nH]c2=O)C(OC(C)=O)C(OC(C)=O)C1OC(C)=O (centres undefined)
> 100 µM

What about this molecule? C=CCN1/C(=C(\C#N)c2nc3ccccc3[nH]2)Sc2c1nc[nH]c2=O
> 100 µM

What about this molecule? NC(N)=NS(=O)(=O)c1ccc(N/N=C2/CCOC2=O)cc1
> 100 µM

What about this molecule? CN(CCCCCl)P(=O)(OCCS(=O)(=O)CC(NC(=O)CCC(N)C(=O)O)C(=O)NC(C(=O)O)c1ccccc1)OCC1OC(n2ccc(N)nc2=O)C(O)C1O (centres undefined)
> 75 µM

What about this molecule? COc1ccccc1Cc1ccc(C2C=CC3(CC(=O)C=C3C)C(=O)C2)o1 (centres undefined)
> 100 µM

What about this molecule? C=C(CN1CCN(c2ccc(C(F)(F)F)cc2)CC1)c1ccc(C(=O)Nc2ccccc2N)cc1
> 100 µM

What about this molecule? N#CC(/C(CCC(=O)Nc1ccc(Cl)cc1)=N/NC(=O)c1cc2ccccc2cc1O)c1ccccc1 (centres undefined)
> 100 µM

What about this molecule? O=C1C=CC2OC(c3ccccc3)C(O)C2O1 (centres undefined)
17.3 µM

What about this molecule? CCCCN1CCCC[C@@H]1C(=O)N[C@H](C(=O)N(C)[C@H](C[C@@H](OC(C)=O)c1nc(C(=O)NC2CCC(C(=O)OC)CC2)cs1)C(C)C)C(C)C (some centres undefined)
> 25 µM

What about this molecule? CC1(C)S[C@@H]2[C@H](N3C(=O)c4ccccc4C3=O)CN2[C@H]1NC(=O)N[C@@H]1N2C[C@@H](N3C(=O)c4ccccc4C3=O)[C@H]2SC1(C)C
> 100 µM
